Catalogue of pIC50 readings, one per entry.
molecular target: CyclinE1/CDK2 (Homo sapiens); construct: purchased Eurofins, discovery 14-475; assay: Fluorescence Polarization (FP) competitive binding assay, Cyclin E1/Cdk2;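 note: readings taken after two-hour equilibration at room temperature in HEPES buffer with NaCl, DTT, NP-40 and BSA, IC50 fitted from eight-concentration serial dilution series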
*1 amine or outer side, *2 acyl side, *3 side chain or, on linkers, in order; H or OH if unused. Where a SMILES comes first, the peptide text is derived from it. Bridges are numbered along the chain shown (N, C = ends). [ ]: non-standard residue; d: D form. The star is where a group is joined. X113 = Cc1cc(-c2ccc(Cl)cc2C[C@@H](C(=O)[*:2])N(C)[*:1])n(C)n1; NMehhhLys(Me) = CN([C@@H](CCCCCCCN(C)[*:3])C(=O)[*:2])[*:1]; Cyclobutanecarbonyl(1-CF3) = O=C(C1(C(F)(F)F)CCC1)*; cBuCO(3,3-F2-1-CF3) = O=C(C1(C(F)(F)F)CC(F)(F)C1)*; X25 = CCOc1ncc(Cl)cc1C[C@@H](C(=O)[*:2])N(C)[*:1]; Pro(trans-4-F) = O=C(O)[C@@H]1C[C@@H](F)CN1; Gly(cPr) = N[C@H](C(=O)O)C1CC1
Expect pIC50 as a plain number equal to -log10 of the molar concentration.

CCOc1ncc(Cl)cc1C[C@H]1C(=O)N(C)CCCCCCC[C@H](N(C)C(=O)[C@@H](NC(=O)[C@@H]2C[C@@H](F)CN2C(=O)C2(C(F)(F)F)CCC2)C2CC2)C(=O)N[C@@H](CC(C)C)C(=O)N1C [Example 227] ({Cyclobutanecarbonyl(1-CF3)}-[Pro(trans-4-F)][Gly(cPr)][NMehhhLys(Me)]L[X25]; lactam 3-C) : 6.92

Ask | Item Cc1cc(-c2ccc(Cl)cc2C[C@H]2C(=O)N(C)CCCCCCC[C@H](N(C)C(=O)[C@@H](NC(=O)[C@@H]3C[C@@H](F)CN3C(=O)C3(C(F)(F)F)CC(F)(F)C3)C3CC3)C(=O)N[C@@H](CC(C)C)C(=O)N2C)n(C)n1 [Example 235] ({cBuCO(3,3-F2-1-CF3)}-[Pro(trans-4-F)][Gly(cPr)][NMehhhLys(Me)]L[X113]; lactam 3-C) has what recorded pIC50?
Reply | 5.22

====

test system: OVCAR3 cells; assay: MTT proliferation assay, OVCAR3; type: cell-based; details: 5 days compound exposure, 1:3 serial dilution starting at 10 μM;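 note: compound given as an 8- or 10-point series, one day after plating, with exposure covering roughly 3-4 cell doublings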
*1 amine or outer side, *2 acyl side, *3 side chain or, on linkers, in order; H or OH if unused. Where a SMILES comes first, the peptide text is derived from it. Bridges are numbered along the chain shown (N, C = ends). [ ]: non-standard residue; d: D form. The star is where a group is joined. X157 = CN([C@@H](Cc1cc(Cl)ccc1-c1ccc(S(=O)(=O)N2CCOCC2)cc1)C(=O)[*:2])[*:1]; X43 = CC(C)N1CCN(c2ccc(-c3ccc(Cl)cc3C[C@@H](C(=O)[*:2])N(C)[*:1])cc2)CC1; X179 = CN([C@@H](Cc1cc(Cl)ccc1-c1ccc(N2CCOCC2)c(C#N)c1)C(=O)[*:2])[*:1]; X45 = CN1CCC(F)(c2ccc(-c3ccc(Cl)cc3C[C@@H](C(=O)[*:2])N(C)[*:1])cc2)CC1; X30 = CN([C@@H](Cc1cc(Cl)ccc1-c1ccc2c(c1)ncn2C)C(=O)[*:2])[*:1]; NMehhhLys(Me) = CN([C@@H](CCCCCCCN(C)[*:3])C(=O)[*:2])[*:1]; cBuCO(3,3-F2-1-CF3) = O=C(C1(C(F)(F)F)CC(F)(F)C1)*; Pro(trans-4-F) = O=C(O)[C@@H]1C[C@@H](F)CN1; Gly(cPr) = N[C@H](C(=O)O)C1CC1
quantity name: GI50 (nM)
Quick reminder: number only, in nM, skip the unit.

CC(=O)N1C2CCC1CC(c1ccc(F)cc1C[C@H]1C(=O)N(C)CCCCCCC[C@H](N(C)C(=O)[C@@H](NC(=O)[C@@H]3C[C@@H](F)CN3C(=O)C3(C(F)(F)F)CC(F)(F)C3)C3CC3)C(=O)N[C@@H](CC(C)C)C(=O)N1C)C2 (single isomer, unassigned) [Example 59-P1] : 20
CC(C)C[C@@H]1NC(=O)[C@@H](N(C)C(=O)[C@@H](NC(=O)[C@@H]2C[C@@H](F)CN2C(=O)C2(C(F)(F)F)CC(F)(F)C2)C2CC2)CCCCCCCN(C)C(=O)[C@H](Cc2cc(Cl)ccc2-c2ccc(S(=O)(=O)N3CCOCC3)cc2)N(C)C1=O [Example 354] ({cBuCO(3,3-F2-1-CF3)}-[Pro(trans-4-F)][Gly(cPr)][NMehhhLys(Me)]L[X157]; lactam 3-C) : 20
CC(C)C[C@@H]1NC(=O)[C@@H](N(C)C(=O)[C@@H](NC(=O)[C@@H]2C[C@@H](F)CN2C(=O)C2(C(F)(F)F)CC(F)(F)C2)C2CC2)CCCCCCCN(C)C(=O)[C@H](Cc2cc(Cl)ccc2-c2ccc(N3CCOCC3)c(C#N)c2)N(C)C1=O [Example 379] ({cBuCO(3,3-F2-1-CF3)}-[Pro(trans-4-F)][Gly(cPr)][NMehhhLys(Me)]L[X179]; lactam 3-C) : 20

Ask | Item CC(C)C[C@@H]1NC(=O)[C@@H](N(C)C(=O)[C@@H](NC(=O)[C@@H]2C[C@@H](F)CN2C(=O)C2(C(F)(F)F)CC(F)(F)C2)C2CC2)CCCCCCCN(C)C(=O)[C@H](Cc2cc(Cl)ccc2-c2ccc(C3(F)CCN(C)CC3)cc2)N(C)C1=O [Example 370] ({cBuCO(3,3-F2-1-CF3)}-[Pro(trans-4-F)][Gly(cPr)][NMehhhLys(Me)]L[X45]; lactam 3-C) has what recorded GI50?
Reply | 20

Ask | Next entry: CC(C)C[C@@H]1NC(=O)[C@@H](N(C)C(=O)[C@@H](NC(=O)[C@@H]2C[C@@H](F)CN2C(=O)C2(C(F)(F)F)CC(F)(F)C2)C2CC2)CCCCCCCN(C)C(=O)[C@H](Cc2cc(Cl)ccc2-c2ccc3c(c2)ncn3C)N(C)C1=O [Example 251] ({cBuCO(3,3-F2-1-CF3)}-[Pro(trans-4-F)][Gly(cPr)][NMehhhLys(Me)]L[X30]; lactam 3-C)
Reply | 10

Ask | Next entry: CC(C)C[C@@H]1NC(=O)[C@@H](N(C)C(=O)[C@@H](NC(=O)[C@@H]2C[C@@H](F)CN2C(=O)C2(C(F)(F)F)CC(F)(F)C2)C2CC2)CCCCCCCN(C)C(=O)[C@H](Cc2cc(Cl)ccc2-c2ccc(N3CCN(C(C)C)CC3)cc2)N(C)C1=O [Example 347] ({cBuCO(3,3-F2-1-CF3)}-[Pro(trans-4-F)][Gly(cPr)][NMehhhLys(Me)]L[X43]; lactam 3-C)
Reply | 10
